Origin of values: the DeepSol protein solubility set

assay: soluble on expression in E. coli; label from the status in PepcDB or PDB records

{"Sequence Input": "MSYNEKSSKSIHEKRAIAKYAASLIEDGDCIFVDAGTTTYELIDYLEGKDILVVSNGLSHIDTLIQKNIKCYVIGGNIKISTKAITGCDALMCLSKFRFDKCFIGANGVHHTYGLTTPDTEEAILKECAINNSRKAYVLADDSKFGEISTIKFSDINKCVIITNEKPKDLEHHHHHH", "soluble on expression in E. coli": "not soluble"}
{"Sequence Input": "MYSDKVFDHFQNPRNVGKIEDADGVGTVGNPVCGDLMTIYIKVKDNRIEDIKFQTFGCAAAIATSSMATEMAKGKTIEEALKITRDAVAEALGGLPKQKMHCSNLAADALRRAIVDYFRKNGKIDKIKELGLEKELEKMEKGEMDDHGEYCEA", "soluble on expression in E. coli": "not soluble"}
